Test system: 699152-130-R-J1-PDC complex spheroid viability
Test: Anticancer human tumor 699152-130-R-J1-PDC patient-derived pancreatic carcinoma cell line growth inhibition [POLQ]
Conditions: curve of first compound; second compound 1 µM
Protocol: Multicellular complex tumor spheroid response to Polymerase (POL) inhibitors (novobiocin, ART-558, RP6685) in combination with a variety of drugs and investigational agents in selected tumor cell lines The POL inhibitors (novobiocin, ART-558, and RP6685) were evaluated both individually and in combination with standard of care and investigational anticancer small molecules within a complex spheroid model of solid tumors. . […]
pIC50: −log10 of the molar value.
recorded_metric: pIC50

* CC1COCCN1c1cc(C2(O)CC3CCC(C2)O3)c2cnn(-c3ccn[nH]3)c2n1 (stereo not given) + COC1C(OC(N)=O)C(O)C(Oc2ccc3c(O)c(NC(=O)c4ccc(O)c(CC=C(C)C)c4)c(=O)oc3c2C)OC1(C)C | 5.93
* COc1ccc([C@@H](O)c2cc(-c3ncnc4cc(N5CCOCC5)ccc34)c(F)cc2Cl)nn1 + Cc1cccc(N(C)C(=O)C2C(O)CCN2c2nc(C)cc(C(F)(F)F)c2C#N)c1 | 5.45
* CC1COCCN1c1cc(C2(O)CC3CCC(C2)O3)c2cnn(-c3ccn[nH]3)c2n1 (stereo not given) + Nc1ccc(C#CCN(C(=O)Cc2ncc(C(F)(F)F)cc2C(F)(F)F)c2ccc(F)cc2)nn1 | 5.86

====

Parameter: viability, T/C. Scope: all listed entries.
system: 699152-130-R-J1-PDC complex spheroid viability; assay: Anticancer human tumor 699152-130-R-J1-PDC cell line growth inhibition [POLQ]; settings: second compound 3.16 µM; first compound 0.316 µM; stronger effect = lower value;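 note: spheroids exposed to agents for 7 days before viability reading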;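 for viability, T/C: percent of DMSO vehicle control viability so 100% = vehicle and 0% = no viable signal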
recorded_metric: viability, T/C (%)

• CCc1cc2c(N3CCc4c(cc(Cn5ccnc5)cc4-c4cn(C)nc4C(F)(F)F)C3=O)cc(C)nc2c(OC)n1 + Nc1ccc(C#CCN(C(=O)Cc2ncc(C(F)(F)F)cc2C(F)(F)F)c2ccc(F)cc2)nn1 = 102
• C=CCn1c(=O)c2cnc(Nc3ccc(N4CCN(C)CC4)cc3)nc2n1-c1cccc(C(C)(C)O)n1 + Nc1ccc(C#CCN(C(=O)Cc2ncc(C(F)(F)F)cc2C(F)(F)F)c2ccc(F)cc2)nn1 = 101
• COc1cccc(OCCCN)c1-c1cc(Nc2cnc(C#N)cn2)n[nH]1 + Nc1ccc(C#CCN(C(=O)Cc2ncc(C(F)(F)F)cc2C(F)(F)F)c2ccc(F)cc2)nn1 = 66.1
• COc1cccc(OCCCN)c1-c1cc(Nc2cnc(C#N)cn2)n[nH]1 + Cc1cccc(N(C)C(=O)C2C(O)CCN2c2nc(C)cc(C(F)(F)F)c2C#N)c1 = 51.2
• CNCc1ccc(-c2[nH]c3cc(F)cc4c3c2CCNC4=O)cc1 + Cc1cccc(N(C)C(=O)C2C(O)CCN2c2nc(C)cc(C(F)(F)F)c2C#N)c1 = 96.6
• CC1COCCN1c1cc(C2(S(C)(=N)=O)CC2)nc(-c2ccnc3[nH]ccc23)n1 (stereo unspecified) + Nc1ccc(C#CCN(C(=O)Cc2ncc(C(F)(F)F)cc2C(F)(F)F)c2ccc(F)cc2)nn1 = 123

====

Tested on: 699152-130-R-J1-PDC complex spheroid viability
Assay: Anticancer human tumor 699152-130-R-J1-PDC cell line growth inhibition [POLQ];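 note: spheroids exposed to agents for 7 days before viability reading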;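 for viability, T/C: percent of DMSO vehicle control viability so 100% = vehicle and 0% = no viable signal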
Settings: second compound 0.0316 µM; first compound 0.316 µM; stronger effect = lower value
Experimental: Multicellular complex tumor spheroid response to Polymerase (POL) inhibitors (novobiocin, ART-558, RP6685) in combination with a variety of drugs and investigational agents in selected tumor cell lines The POL inhibitors (novobiocin, ART-558, and RP6685) were evaluated both individually and in combination with standard of care and investigational anticancer small molecules within a complex spheroid model of solid tumors. . […]
recorded_metric: viability, T/C (%)

* C=CC(=O)N1CCN(c2nc(=O)n(-c3c(C)ccnc3C(C)C)c3nc(-c4c(O)cccc4F)c(F)cc23)C(C)C1 (stereo not given) + COC1C(OC(N)=O)C(O)C(Oc2ccc3c(O)c(NC(=O)c4ccc(O)c(CC=C(C)C)c4)c(=O)oc3c2C)OC1(C)C | 97.7
* C=CCn1c(=O)c2cnc(Nc3ccc(N4CCN(C)CC4)cc3)nc2n1-c1cccc(C(C)(C)O)n1 + Cc1cccc(N(C)C(=O)C2C(O)CCN2c2nc(C)cc(C(F)(F)F)c2C#N)c1 | 80.3
* CCc1cc2c(N3CCc4c(cc(Cn5ccnc5)cc4-c4cn(C)nc4C(F)(F)F)C3=O)cc(C)nc2c(OC)n1 + COC1C(OC(N)=O)C(O)C(Oc2ccc3c(O)c(NC(=O)c4ccc(O)c(CC=C(C)C)c4)c(=O)oc3c2C)OC1(C)C | 89.5
* COc1cc(C2c3cc4c(cc3C(OC3OC5COC(C)OC5C(O)C3O)C3COC(=O)C23)OCO4)cc(OC)c1O (stereo not given) + COC1C(OC(N)=O)C(O)C(Oc2ccc3c(O)c(NC(=O)c4ccc(O)c(CC=C(C)C)c4)c(=O)oc3c2C)OC1(C)C | 66.4
* CC1COCCN1c1cc(-c2ccnn2C)c2ccnc(-c3ccn[nH]3)c2n1 (stereo not given) + COC1C(OC(N)=O)C(O)C(Oc2ccc3c(O)c(NC(=O)c4ccc(O)c(CC=C(C)C)c4)c(=O)oc3c2C)OC1(C)C | 71.5
